Assay: folding stability dG unfold from chymotrypsin proteolysis; higher = more stable
Experimental Readout: folding stability dG unfold (kcal/mol)
Your answer should be a plain number; it is taken to be in kcal/mol.

Some sequences with recorded folding stability dG unfold:
>>> val("SAGGKYKIEIVDVEVKEDGTVTIKLKLYNENGELIAEIEIELKGVKEVTLELEIGGKKIKITLKVEKPSAGG [r13_427_TrROS_Hall]")
5.3
>>> val("SVPADAKPGVVPERVVLVIVVPPELLDEDGRLRPENLEIAAGEAAEAARKLREAFPDVPIEDVGVVVVEGSA [r9_943_TrMRF]")
0.466
>>> val("SAGKVEIKEVSVDPNTDEVKVTFKNPNVPPGTKIVVYPKDGKPIEFETEPNKEVTLTLPKDVEKIEFEGSAG [r14_671_TrMRF]")
0.381
>>> val("SAGGMKTVEIEIPVPPGMSIEELVKKLLEELKKKKDIKEVEIEITLKDGSKIKIRVNKNGKIVKVEKLSAGG [r13_690_TrROS_Hall]")
2.46

Exercise: Using known records, supply folding stability dG unfold for SAGGSAGGSKTKTIEIEVDGKKVRITVNEDGSVTIEVYYPGKPVKTIEIPGMSIEEILKALLESAGGSAGGS [r20_8_TrROS_Hall]
Key: 2.27

Exercise: Quickly give me recorded folding stability dG unfold for SAGGSAGGSAGSSSISRETFDPETGLRYVYDPETDTITVIDLSNNKVVKTTPVGPEELERSAGGSAGGSAGG [r17_271_JUSTAS]
Key: 1.95

Exercise: Assign folding stability dG unfold to the following record: SQVKIHIPFEVEYSPENGNYFFMIRVRYPGKERPIMFPYKDPEQMREWARTIAKELAKENPDNVEIEIWWSA [r9_1148_TrROS]
Key: 2.83

Exercise: Please list folding stability dG unfold recorded for the sequence SAGGSSIKIEKIEKHENGVKIDISVPDLSNEEEINAVKKKLAEELGLKEEDVEVSLKSENIPLPPSIGSAGG [r13_430_JUSTAS]
Key: 2.32

Exercise: Indicate its recorded folding stability dG unfold; the sequence in question is SAGGSAGGKKKKKKKKKYYTFVLKVKEKDLTPEEIKKLFPNVKIEKKDGYLVITVKVNGKEIKFSAGGSAGG [r6_738_TrROS_Hall]
Key: 2.66

Exercise: Let me know recorded folding stability dG unfold for SANKNFYIIQIKWEIDGPDGRTLSFMIIVPRDDPDEFLKEAKDFIAEEFGYPIKKIEVDIHRIPPEDFPSAG [r14_104_TrROS] , thanks.
Key: 3.16

Exercise: Give folding stability dG unfold for SAGGSLSEIIEKAKELAKKKYPNKGVTVPVEIKYKDPVKKKWIKVKIEITFDKNGNIIKITIKEIKLESAGG [r13_770_JUSTAS]
Key: 4.04

====

Test: folding stability dG unfold (combined trypsin and chymotrypsin); higher = more stable
Experimental Readout: folding stability dG unfold (kcal/mol)
Kindly answer with a numeric value in kcal/mol, unit omitted.

Here's what some known entries look like.
>>> val("SAGGSAGGSAPKPKTKTIMFRFPGTPEDALDIAKEIANYFNDRGLEIEVERHPNGYIMITFPSAGGSAGGSA [r18_262_TrROS]")
2.61
>>> val("SSKIEASATIEGDVITVTLVADSLSDLLAAIKELAEKLGVSFEILSISYKRLPNGKIIATVTARVKPEDLSA [r9_102_TrMRF]")
4.28
>>> val("SAGGRFYFEAKDPSITPEELRAALEEAFGVKFHRIKPVEPLPDGMLYEVEIPEIGGHFDVSAEEIEKLLSAG [r5_550_TrMRF]")
1.56
>>> val("SAGGNPDGKPDGGVSFVVNVAKTKPYIDPSTGKVYPVVEVKPVVIEVKKDEKLDLSELLKNTDYISVSSAGG [r13_753_TrMRF]")
0.0383
>>> val("SAGGSAGGSASVKELAEKLAEPGQTVMVIKRDGKEYLIVMSDEEAEALRKLFPDMEIERVRLSAGGSAGGSA [r18_198_TrROS_Hall]")
1.81

Exercise: Find the measured folding stability dG unfold of SAGGMEIKIENIEINPDKKTIQYNFEIYHDGQPFKMDISIEVDPKNGLYKITVTYPDFPGVKHTLYIPSAGG [r13_615_TrROS] and report it.
Key: 5.35

Exercise: // fetch folding stability dG unfold given entry SAGGSAGGSELPDGPALVVLPINSKPVVALAKVNSTGKIEVYIPNPGKKFTFDLDQAEVYPVLSAGGSAGGS [r12_782_TrMRF]
Key: 0.35

Exercise: Give the reported folding stability dG unfold for this sequence. SAGGSAGGSAGTIVITQSPDGTWRAYYEDGTAEEFDSIDDLKKALEEHYPDAKTVIFKPASAGGSAGGSAGG [r11_806_TrMRF]
Key: 3.15

Exercise: Could you please provide reported folding stability dG unfold for SAGGSAGGSFELPVPPNTPVDIEATVTRPDGTPATLVDAEPLGDGTFRVTVRYPDGSTETIEVSAGGSAGGS [r12_31_JUSTAS] ? Thanks!
Key: 0.464

Provenance of the data: the supplement of paper PMC12764529
